Biological target: Homeobox protein Hox-A13 (Mus musculus) (UniProt Q62424)
Sequence (Q62424 whole entry, looked up): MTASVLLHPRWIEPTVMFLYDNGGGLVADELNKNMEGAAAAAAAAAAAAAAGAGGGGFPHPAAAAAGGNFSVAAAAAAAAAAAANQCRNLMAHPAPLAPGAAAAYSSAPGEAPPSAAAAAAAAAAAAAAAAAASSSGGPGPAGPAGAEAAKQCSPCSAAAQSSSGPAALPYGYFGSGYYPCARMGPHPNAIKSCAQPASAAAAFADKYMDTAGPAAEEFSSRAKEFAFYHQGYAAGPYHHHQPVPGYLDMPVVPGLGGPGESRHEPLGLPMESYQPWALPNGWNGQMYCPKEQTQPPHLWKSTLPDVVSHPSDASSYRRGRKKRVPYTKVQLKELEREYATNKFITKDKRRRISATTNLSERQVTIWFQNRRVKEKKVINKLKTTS
Test: inhibitors of HoxA13-DNA binding, primary screen, biochemical, fluorescence polarization, labeled oligonucleotide (AID 1185)
Conditions: 15 min, higher = more signal, called active from +8 up or from −8 down
# binarize z-score: threshold -2 inclusive, high side Criterion met, low side Criterion not met

Compound | Classification
C=CC[C@@]12N=C(c3ccc(OCCCO)cc3)O[C@@H]1c1ccccc1CN(Cc1ccccc1)C2=O | Criterion met
C=CCNC(=O)[C@@H]1[C@H]2C(=O)O[C@H](c3ccccc3)[C@H](c3ccccc3)N2[C@H](c2ccc(OCCO)cc2)[C@@]12C(=O)N(C(=O)OCCOC)c1ccc(C#CC3(O)CCCCCC3)cc12 | Criterion met
C[N+](C)(C)CCCCNC(=O)[C@@H]1C[C@@H]2C(=O)N3CCC[C@H]3C(=O)N2[C@@H]1c1cccc(OCCO)c1 | Criterion met
COC(=O)C[C@H]1O[C@]2(C(=O)N(Cc3ccccc3)c3ccc(I)cc32)[C@@H](C)[C@@H]1[Si](C)(C)c1ccc(OC)cc1 | Criterion met
C=C(CCCC)/C(=C/C[C@@H](OC(=O)c1ccncc1)c1cccc(OCCO)c1)c1cc(C(=O)OC)ccc1OC | Criterion not met
COC(=O)C1=CC(c2ccc(CO)cc2)=CC(C2CC2)N(Cc2sc3ccccc3c2Cl)C=C1C(=O)OC (stereo not given) | Criterion not met
C=CCC(OC(C)=O)[C@@H]1[C@@H](N(Cc2ccc(-c3cccc(C(F)(F)F)c3)o2)C(=O)Cc2ccc(F)cc2)c2cc(OCCCO)ccc2N1C(=O)c1ccc(-c2ccccc2)cc1 (stereo not given in full) | Criterion met
CC(C)[Si]1(C(C)C)O[C@@H](c2ccccc2)c2cc(C3CC3)nc(-c3ccc(Oc4ccccc4)cc3)c21 | Criterion met
O=C1c2ccccc2[C@](Cc2ccccc2I)(C(=O)NCC(F)(F)F)[C@H](c2ccc(CO)cc2)N1Cc1ccccc1C(F)(F)F | Criterion not met
CCCC=C(CCC)[C@@H](NS(=O)(=O)c1ccc(C(F)(F)F)cc1)c1ccc(-c2ccccc2)cc1 | Criterion met
CC(c1ccccc1)C(O)C1C=CC2C(=O)N(C)C(=O)C2N1N(c1ccccc1)c1ccccc1 (stereo not given) | Criterion not met
COc1cccc([C@@H]2[C@@H](C)CC[C@H]3C(=O)N(C)[C@@H](C(C)C)C(=O)N23)c1 | Criterion met
CCCNC(=O)[C@@]1(Sc2ccc(C)cc2)CC(=O)N(Cc2ccccc2Cl)[C@@H]1c1ccc(CO)cc1 | Criterion met
NC(=O)[C@H]1[C@@H]2C(=O)O[C@@H](c3ccccc3)[C@@H](c3ccccc3)N2[C@@H](c2ccc(O)cc2)[C@]12C(=O)Nc1ccc(C#CCCO)cc12 | Criterion not met
[N-]=[N+]=NCc1ccccc1C[C@@]1(C(=O)O)N=C(c2ccc(OCCCO)cc2)O[C@@H]1c1ccccc1N=[N+]=[N-] | Criterion not met

###

System: Wnt5a (protein binding on small-molecule microarray)
Experiment: Wnt5a binders on small-molecule microarray, primary screen, biophysical, 635/667 nm fluorescence (AID 1142);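 note: fluorescence read at 667 nm with signal to noise per printed feature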
Conditions: 635 nm fluorescence, higher = more signal
Quantity: composite z-score

Mol | Test Target | Quantity | Assay Result
COc1cc([C@@H]2N[C@H](C(=O)O)Cc3c2[nH]c2ccccc32)cc(OC)c1OC | Wnt5a (protein binding on small-molecule microarray) | composite z-score | 0.102
Cc1ccc(S[C@]2(C(=O)NC3CC3)CC(=O)N(Cc3cc(C(F)(F)F)cc(C(F)(F)F)c3)[C@@H]2c2ccc(CO)cc2)cc1 | Wnt5a (protein binding on small-molecule microarray) | composite z-score | 0.134
CO[C@H]1COC(=O)[C@H](C)NC(=O)CC=C[C@@H](C)[C@H](NS(=O)(=O)c2ccc(C)cc2)COC(=O)CC=C[C@@H]1C | Wnt5a (protein binding on small-molecule microarray) | composite z-score | -0.0879
O=C1c2ccccc2[C@](Cc2ccccc2I)(C(=O)O)[C@H](c2ccc(CO)cc2)N1C1CCCCC1 | Wnt5a (protein binding on small-molecule microarray) | composite z-score | 0.818
